Origin of values: patent US20250120967A1

Recorded below: IC50, system CSF1R (FMS) (Homo sapiens).
measured_quantity: IC50 (nM)

COc1cc2nccc(Oc3ccc(NC(=O)C4(C(=O)Nc5ccc(F)cc5)CC4)cc3F)c2cc1Oc1ccc(N)cc1F	40.2
COc1cc2nccc(Oc3ccc(NC(=O)C4(C(=O)Nc5ccc(F)cc5)CC4)cc3)c2cc1OC [Cabozantinib, reference compound]	11.9
CNC(=O)c1cc2c(Oc3ccc(NC(=O)C4(C(=O)Nc5ccc(F)cc5)CC4)cc3)ccnc2cc1OC [Zanzalintinib, reference compound]	16.3

====

Measured inhibition at 1 µM, listed per entry.
# target_under_test: FES (FPS) (Homo sapiens, UniProt P07332)
# Sequence (P07332 whole entry): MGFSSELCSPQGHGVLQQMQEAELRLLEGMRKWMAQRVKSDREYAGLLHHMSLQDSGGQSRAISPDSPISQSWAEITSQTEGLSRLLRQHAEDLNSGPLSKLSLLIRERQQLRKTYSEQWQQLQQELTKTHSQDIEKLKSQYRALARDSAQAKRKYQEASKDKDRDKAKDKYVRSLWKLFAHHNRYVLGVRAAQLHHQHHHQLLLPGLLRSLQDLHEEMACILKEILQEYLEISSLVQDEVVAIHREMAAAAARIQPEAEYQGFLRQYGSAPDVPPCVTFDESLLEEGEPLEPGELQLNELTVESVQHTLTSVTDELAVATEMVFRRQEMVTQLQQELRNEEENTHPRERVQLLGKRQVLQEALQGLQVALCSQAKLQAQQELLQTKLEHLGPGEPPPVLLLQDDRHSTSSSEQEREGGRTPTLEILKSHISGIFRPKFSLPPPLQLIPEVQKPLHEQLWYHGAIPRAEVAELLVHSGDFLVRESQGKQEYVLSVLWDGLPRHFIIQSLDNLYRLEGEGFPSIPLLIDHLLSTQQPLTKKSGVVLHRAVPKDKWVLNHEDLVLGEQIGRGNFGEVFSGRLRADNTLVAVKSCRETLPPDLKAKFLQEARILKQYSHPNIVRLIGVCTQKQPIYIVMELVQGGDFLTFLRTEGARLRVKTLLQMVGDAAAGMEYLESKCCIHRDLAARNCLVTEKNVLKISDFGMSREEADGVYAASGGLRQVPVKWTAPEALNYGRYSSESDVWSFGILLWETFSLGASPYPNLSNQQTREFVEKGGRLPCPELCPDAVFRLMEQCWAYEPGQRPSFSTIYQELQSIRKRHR
# assay_notes: Tyrosine kinase inhibition assay
# Assay type: biochemical
# measurement_context: single concentration 1.0 μM, read-out: percent inhibition
# Method: Tyrosine kinase inhibition assays were performed at ThermoFisher Life Technologies (Madison, WI, USA) using standard protocols (SelectScreen Biochemical Profiling Service, Thermo Fisher Scientific). ATP concentrations used were at the apparent Km. […] The apparent ATP Km was previously determined using a Z′-LYTE assay. […] The inhibition activities of compounds were determined in biochemical assays using single concentration (1.0 μM) measurements. […]
measured_quantity: inhibition at 1 µM (%)

COc1cc2nccc(Oc3ccc(NC(=O)C4(C(=O)Nc5ccc(F)cc5)CC4)cc3F)c2cc1Oc1ccc(N)cc1F	58
COc1cc2nccc(Oc3ccc(NC(=O)C4(NC(=O)c5ccc(F)cc5)CC4)cc3F)c2cc1Oc1c(F)cc(N)cc1F	78
COc1cc2nccc(Oc3ccc(NC(=O)C4(C(=O)Nc5ccc(F)cc5)CC4)cc3)c2cc1OC [Cabozantinib, reference compound]	30
COc1cc2nccc(Oc3ccc(NC(=O)C4(NC(=O)c5ccc(F)cc5)CC4)cc3F)c2cc1OC	38
COc1cc2nccc(Oc3ccc(NC(=O)C4(NC(=O)c5ccc(F)cc5)CC4)cc3F)c2cc1Oc1ccc(N)cc1F	80

====

# target_under_test: EPHB3 (Homo sapiens, UniProt P54753)
# Sequence (P54753 34-998): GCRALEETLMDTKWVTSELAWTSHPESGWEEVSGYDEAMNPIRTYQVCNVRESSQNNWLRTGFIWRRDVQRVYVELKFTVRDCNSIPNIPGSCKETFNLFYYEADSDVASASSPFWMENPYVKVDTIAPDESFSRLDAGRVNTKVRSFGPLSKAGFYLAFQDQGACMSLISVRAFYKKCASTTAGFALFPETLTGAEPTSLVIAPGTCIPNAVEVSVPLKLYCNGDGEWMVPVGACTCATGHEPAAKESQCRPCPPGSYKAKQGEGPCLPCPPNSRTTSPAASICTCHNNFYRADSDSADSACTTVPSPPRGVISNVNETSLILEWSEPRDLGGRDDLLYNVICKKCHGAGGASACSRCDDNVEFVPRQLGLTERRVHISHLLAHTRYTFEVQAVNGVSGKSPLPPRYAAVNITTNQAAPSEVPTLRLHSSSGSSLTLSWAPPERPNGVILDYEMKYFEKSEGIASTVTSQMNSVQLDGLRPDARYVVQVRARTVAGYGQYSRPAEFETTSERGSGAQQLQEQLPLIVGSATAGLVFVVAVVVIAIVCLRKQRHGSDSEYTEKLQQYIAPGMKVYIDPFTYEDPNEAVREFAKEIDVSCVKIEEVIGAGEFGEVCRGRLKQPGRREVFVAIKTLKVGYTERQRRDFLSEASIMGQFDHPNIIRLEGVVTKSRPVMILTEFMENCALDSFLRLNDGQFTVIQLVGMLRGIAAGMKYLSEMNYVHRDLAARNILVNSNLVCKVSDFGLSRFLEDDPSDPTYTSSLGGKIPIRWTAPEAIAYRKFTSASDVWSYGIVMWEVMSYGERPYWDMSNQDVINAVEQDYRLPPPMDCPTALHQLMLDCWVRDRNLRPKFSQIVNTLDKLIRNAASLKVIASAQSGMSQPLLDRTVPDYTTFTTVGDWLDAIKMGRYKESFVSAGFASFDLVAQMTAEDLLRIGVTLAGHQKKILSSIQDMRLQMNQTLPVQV
# assay_notes: Tyrosine kinase inhibition assay
# Type: biochemical
# measurement_context: single concentration 1.0 μM, read-out: percent inhibition
Measured inhibition at 1 µM, listed per entry.
measured_quantity: inhibition at 1 µM (%)

COc1cc2nccc(Oc3ccc(NC(=O)C4(C(=O)Nc5ccc(F)cc5)CC4)cc3F)c2cc1Oc1ccc(N)cc1F [Cbo-23]	55
COc1cc2nccc(Oc3ccc(NC(=O)C4(C(=O)Nc5ccc(F)cc5)CC4)cc3)c2cc1OC [Cabozantinib, reference compound]	54
COc1cc2nccc(Oc3ccc(NC(=O)C4(NC(=O)c5ccc(F)cc5)CC4)cc3F)c2cc1Oc1c(F)cc(N)cc1F [Cbo-14]	6
COc1cc2nccc(Oc3ccc(NC(=O)C4(NC(=O)c5ccc(F)cc5)CC4)cc3F)c2cc1Oc1ccc(N)cc1F [Cbo-10]	6
COc1cc2nccc(Oc3ccc(NC(=O)C4(NC(=O)c5ccc(F)cc5)CC4)cc3F)c2cc1OC [Cbo-02]	4

====

# target_under_test: BTK (Homo sapiens)
# Sequence (Q06187 whole entry): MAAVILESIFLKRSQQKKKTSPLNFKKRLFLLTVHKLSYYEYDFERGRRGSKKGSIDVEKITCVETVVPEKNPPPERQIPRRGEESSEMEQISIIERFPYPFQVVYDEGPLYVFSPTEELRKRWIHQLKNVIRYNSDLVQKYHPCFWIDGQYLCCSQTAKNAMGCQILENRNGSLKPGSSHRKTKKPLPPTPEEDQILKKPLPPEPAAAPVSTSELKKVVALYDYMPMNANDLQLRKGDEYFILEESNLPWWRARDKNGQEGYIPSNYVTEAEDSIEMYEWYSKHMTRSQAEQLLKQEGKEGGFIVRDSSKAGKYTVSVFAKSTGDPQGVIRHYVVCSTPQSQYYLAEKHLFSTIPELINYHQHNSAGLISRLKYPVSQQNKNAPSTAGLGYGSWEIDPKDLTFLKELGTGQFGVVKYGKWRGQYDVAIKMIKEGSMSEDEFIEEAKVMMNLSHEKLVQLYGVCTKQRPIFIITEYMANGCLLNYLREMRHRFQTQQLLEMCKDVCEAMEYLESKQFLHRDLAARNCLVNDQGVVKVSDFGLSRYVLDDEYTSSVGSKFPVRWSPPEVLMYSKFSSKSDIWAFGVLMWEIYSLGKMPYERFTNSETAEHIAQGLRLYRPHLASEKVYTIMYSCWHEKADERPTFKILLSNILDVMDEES
# assay_notes: Tyrosine kinase inhibition assay
# Format: biochemical
# measurement_context: single concentration 1.0 μM, read-out: percent inhibition
Measured inhibition at 1 µM, listed per entry.
measured_quantity: inhibition at 1 µM

COc1cc2nccc(Oc3ccc(NC(=O)C4(NC(=O)c5ccc(F)cc5)CC4)cc3F)c2cc1Oc1ccc(N)cc1F	102%
COc1cc2nccc(Oc3ccc(NC(=O)C4(C(=O)Nc5ccc(F)cc5)CC4)cc3)c2cc1OC [Cabozantinib, reference compound]	82%
COc1cc2nccc(Oc3ccc(NC(=O)C4(NC(=O)c5ccc(F)cc5)CC4)cc3F)c2cc1Oc1c(F)cc(N)cc1F	101%
COc1cc2nccc(Oc3ccc(NC(=O)C4(NC(=O)c5ccc(F)cc5)CC4)cc3F)c2cc1OC	98%
COc1cc2nccc(Oc3ccc(NC(=O)C4(C(=O)Nc5ccc(F)cc5)CC4)cc3F)c2cc1Oc1ccc(N)cc1F	101%
